This collection of values is drawn from ChEMBL document CHEMBL1255242.

Assay: Drug level in rhesus monkey ileac lymph node at 1 ml/day administered intravaginally for 7 days measured 24 hrs after final dose by LC-MS/MS analysis
Assay type: ADME, tissue-based, Macaca mulatta
Details: read-out: Drug uptake
measure: concentration at 24 h

compound: Cc1cc(C)c(Nc2ccnc(Nc3ccc([14C]#N)cc3)n2)c(C)c1 [[14C]DAPIVIRINE]
measure: concentration at 24 h
result: 11.6 ng/g

* * *

Assay: Drug level in rhesus monkey ileac lymph node at 1 ml/day administered intravaginally for 7 days measured 48 hrs after final dose by LC-MS/MS analysis
Format: ADME, tissue-based, Macaca mulatta
Details: read-out: Drug uptake

compound: Cc1cc(C)c(Nc2ccnc(Nc3ccc([14C]#N)cc3)n2)c(C)c1 [[14C]DAPIVIRINE]
concentration at 48 h (ng/g): 1.16

* * *

Assay: Drug level in rhesus monkey vaginal tissue at 1 ml/day administered intravaginally for 7 days measured 48 hrs after final dose by LC-MS/MS analysis
Format: ADME, Macaca mulatta, Vagina
Settings: read-out: Drug uptake

compound: Cc1cc(C)c(Nc2ccnc(Nc3ccc([14C]#N)cc3)n2)c(C)c1 [[14C]DAPIVIRINE]
u: ng/g
concentration at 48 h: 515

* * *

Assay: Drug level in rhesus monkey cervical tissue at 1 ml/day administered intravaginally for 7 days measured 48 hrs after final dose by LC-MS/MS analysis
Type: ADME, Macaca mulatta
Details: read-out: Drug uptake

compound: Cc1cc(C)c(Nc2ccnc(Nc3ccc([14C]#N)cc3)n2)c(C)c1 [[14C]DAPIVIRINE]
u: ng/g
concentration at 48 h: 81

* * *

Experiment: Drug level in rhesus monkey inguinal lymph node at 1 ml/day administered intravaginally for 7 days measured 48 hrs after final dose by LC-MS/MS analysis
Format: ADME, tissue-based, Macaca mulatta
Settings: read-out: Drug uptake

compound: Cc1cc(C)c(Nc2ccnc(Nc3ccc([14C]#N)cc3)n2)c(C)c1 [[14C]DAPIVIRINE]
concentration at 48 h, ng/g: 0.48

* * *

Assay: Drug level in rhesus monkey vaginal tissue at 1 ml/day administered intravaginally 7 days measured 1 hr after final dose by LC-MS/MS analysis
Assay type: ADME, Macaca mulatta, Vagina
Conditions: read-out: Drug uptake
measure: concentration at 1 h (ng/g)

compound: Cc1cc(C)c(Nc2ccnc(Nc3ccc([14C]#N)cc3)n2)c(C)c1 [[14C]DAPIVIRINE]
measuredNumber: 4260
